Tested on: Rattus norvegicus
METHOD NOTES: Anticonvulsant activity against maximal electroshock-induced seizures in po dosed rat
Assay type: functional
For each record, check the reported ED50: if it is below 60 µmol/kg write class 1, else write class 0.

Worked examples, 3 compounds total:
> print(dat)
                                   compound  class.assignment
1  CCCC(C)C(=O)Nc1ccc(S(N)(=O)=O)cc1 (stereo unspecified)           class 1
2         CCC(CC)C(=O)Nc1ccc(S(N)(=O)=O)cc1           class 1
3  CCCC(C(=O)Nc1ccc(S(N)(=O)=O)cc1)C(C)CC (stereo unspecified)           class 0

[in] Record CCCC(CC)C(=O)Nc1ccc(S(N)(=O)=O)cc1 (stereo unspecified) : is its ED50 strictly below 60 µmol/kg?
[out] class 1

[in] Record CC(C)C(C(=O)Nc1ccc(S(N)(=O)=O)cc1)C(C)(C)C (stereo unspecified) : is its ED50 strictly below 60 µmol/kg?
[out] class 1

[in] Record CC(C)(C)C(=O)Nc1ccc(S(N)(=O)=O)cc1 : is its ED50 strictly below 60 µmol/kg?
[out] class 0

###

Test system: Rattus norvegicus
METHOD NOTES: Anticonvulsant activity against maximal electroshock-induced seizures in po dosed rat
Format: functional
Readings of ED50 for the listed compounds
Just the number please, in µmol/kg, no unit attached.

Examples with their reported ED50 follow.
> print(dat)
                                   compound  metric  unit.info  assay.value
1  CCC(C)CC(=O)Nc1ccc(S(N)(=O)=O)cc1 (stereo not given)    ED50    µmol/kg           61
2  CC1(C)O[C@@H]2[C@@H](CO[C@@]3(COS(N)(=O)=O)OC(C)(C)O[C@@H]23)O1 [TOPIRAMATE]    ED50    µmol/kg           10
3       NS(=O)(=O)c1ccc(NC(=O)Cc2ccccc2)cc1    ED50    µmol/kg           55

// recorded ED50 for CCC(C)C(=O)Nc1ccc(S(N)(=O)=O)cc1 (stereo not given) : 30

// recorded ED50 for CCCCC(CC)C(=O)Nc1ccc(S(N)(=O)=O)cc1 (stereo not given) : 80
